Experiment: qHTS assay to identify small molecule agonists of the estrogen receptor beta (ER-beta) signaling pathway - cell viability counter screen (AID 1259380); also: nearly all actives have a fitted effect of over 30% in size
Settings: ER-beta-bla HEK293T viability, CellTiter-Glo luminescence, 16 h; series mostly up to 92.4 µM
Results filed as inconclusive are left out. Active and inactive are the calls of the source. Calls follow the shape of the dose curve; as a rule, active = well fitted cell-killing curve with a large enough effect in the repeat runs; inconclusive = weak or mixed curves, or effect the other way; inactive = flat fitted curve, though single readings scatter.
Quantity Kind: activity change, negative = cytotoxicity

O=C(O)Cc1csc(-c2ccc(Cl)cc2)n1; inactive
C=COC(=O)C(C)(CC)CCC(C)C (configuration not stated); inactive
CC(=O)N1C[C@H](O)C[C@H]1C(=O)O; inactive
c1coc(CNc2ncnc3nc[nH]c23)c1; inactive
CC(C)(CCC(=O)O)C(=O)O; inactive

Parameters: items (list). Returns: activity change, negative = cytotoxicity for each item.
1. NC(=O)Cc1cccc2ccccc12
2. CC(=O)Nc1ccc(OCC(O)CNC(C)C)cc1 (configuration not stated)
3. O=Cc1cccc(Br)c1
4. C=COCC1CCC(COC=C)CC1 (configuration not stated)
5. CCCCCCCCCCCCCCC(=O)O

inactive
inactive
inactive
inactive
inactive

Parameters: items (list). Returns: activity change, negative = cytotoxicity for each item.
1. CC(C)c1ccc2ncccc2c1
2. CCOC(=O)COc1cc(-n2ncc(C(F)(F)F)c(C)c2=O)c(F)cc1Cl
3. CCC(C)(CN(C)C)OC(=O)c1ccccc1 (configuration not stated)
4. CN(C)C(=O)Oc1ccc[n+](C)c1
5. CC[N+](C)(CC)CCOC(=O)C1c2ccccc2Oc2ccccc21
6. CC(C)COC(=O)c1ccc(N)cc1

1: inactive; 2: inactive; 3: inactive; 4: inactive; 5: inactive; 6: inactive

Parameters: items (list). Returns: activity change, negative = cytotoxicity for each item.
1. CCC1C(=O)OCC1Cc1cncn1C (configuration not stated)
2. C=C(C)C(=O)OCCOCCOCCOCCOC(=O)C(=C)C
3. CNCC(O)c1ccc(O)c(O)c1 (configuration not stated)
4. CO[Si](C)(OC)c1ccccc1
5. CCCO[Si](OCCC)(OCCC)OCCC
6. CO/N=C(\C(=O)N[C@@H]1C(=O)N2C(C(=O)O)=C(CSc3nc(=O)c(O)nn3C)CS[C@H]12)c1csc(N)n1

1. inactive
2. inactive
3. inactive
4. inactive
5. inactive
6. inactive

Parameters: items (list). Returns: activity change, negative = cytotoxicity for each item.
1. Cc1ncc([C@@H](CCCCCCc2ccc3c(n2)NCCC3)CC(=O)O)cn1
2. O=[N+]([O-])c1ccc(/C=N\O)o1
3. CC1=NN(c2cc(S(=O)(=O)O)ccc2Cl)C(=O)C1N=Nc1ccccc1 (configuration not stated)
4. C=C(C)C(=O)OCC(O)CO (configuration not stated)

1: inactive; 2: inactive; 3: inactive; 4: inactive

Lab book: activity change, negative = cytotoxicity of CN(C)[C@@H]1C(=O)C(C(=O)NCN2CCCC2)=C(O)[C@@]2(O)C(=O)C3=C(O)c4c(O)cccc4[C@@](C)(O)C3C[C@@H]12 (some centres not stated) noted as inactive

Sourced from PubChem BioAssay (Tox21)
